Tested on: ENR+CD organoids (ISC to Paneth cell differentiation)
ASSAY_EXPLANATION: Primary screen: basal (non-stimulated) lysozyme secretion LYZ.NS, 2.5-D 384-well ENR+CD organoid differentiation
Assay type: cell-based, mouse
EXPERIMENTAL_CONDITIONS: primary screen, dose 2.00 uM
MEASUREMENT_LABEL: Z.LYZ.NS (standard z score)
No unit in the answer, only the number.

MOLECULE: Cc1cc([C@@H](C)Nc2ccccc2C(=O)O)c2nc(N3CCOCC3)cc(=O)n2c1
Z.LYZ.NS (standard z score): −1.129
//
MOLECULE: O=C(c1ccc(Nc2nccc(-c3cc4ccccc4s3)n2)cc1)N1CCC(N2CCCC2)CC1
Z.LYZ.NS (standard z score): −0.708
//
MOLECULE: Nc1nc(OCc2cc(Br)cs2)c2[nH]cnc2n1
Z.LYZ.NS (standard z score): −0.193
//
MOLECULE: N#CC1(c2ccc(NC(=O)c3cccnc3NCc3ccncc3)cc2)CCCC1
Z.LYZ.NS (standard z score): 0.660
//
MOLECULE: O=c1oc2cc(O)ccc2s1
Z.LYZ.NS (standard z score): 0.462
//
MOLECULE: Cc1noc(-c2ccc(CSCCC(=O)O)cc2)c1NC(=O)OC(C)c1ccccc1Cl (stereo not drawn)
Z.LYZ.NS (standard z score): −0.069
//
MOLECULE: COc1ccc(C(=O)N2CCCC2=O)cc1
Z.LYZ.NS (standard z score): 0.277
//
MOLECULE: O=c1ncccn1[C@@H]1O[C@H](CO)[C@@H](O)[C@H]1O
Z.LYZ.NS (standard z score): 0.828

Input line: Data request, read-out Z.LYZ.NS (standard z score), for "CCn1c(-c2nonc2N)nc2c(C#CC(C)(C)O)ncc(OC[C@H]3CCCNC3)c21"
Output line: 1.060

Input line: Data request, read-out Z.LYZ.NS (standard z score), for "CNC(=O)[C@H](Cc1ccccc1)NC(=O)[C@H](CC(C)C)[C@H](CSc1cccs1)C(=O)NO"
Output line: 0.707

Input line: Data request, read-out Z.LYZ.NS (standard z score), for "Oc1ccc2ccccc2c1SSc1c(O)ccc2ccccc12"
Output line: −0.010

Input line: Data request, read-out Z.LYZ.NS (standard z score), for "C[C@@H](Oc1cc(-n2cnc3ccc(CN4CCN(C)CC4)cc32)sc1C(N)=O)c1ccccc1C(F)(F)F"
Output line: −2.138

Input line: Data request, read-out Z.LYZ.NS (standard z score), for O=C(O[C@H]1C[C@H]2CC[C@@H](C1)[N+]21CCCC1)C(O)(c1ccccc1)c1ccccc1 [Trospium chloride]
Output line: −0.017

Input line: Data request, read-out Z.LYZ.NS (standard z score), for CC(C)CCN1c2nc(Nc3cc(F)c(O)c(F)c3)ncc2N(C)C(=O)C1C (stereo not drawn)
Output line: −0.574

Input line: Data request, read-out Z.LYZ.NS (standard z score), for O=C(C[S+]([O-])Cc1ccco1)NC/C=C\COc1cc(CN2CCCCC2)ccn1 (stereo not drawn)
Output line: 0.320

Input line: Data request, read-out Z.LYZ.NS (standard z score), for "O=C(c1cn(Cc2cncn2Cc2ccc(Br)cc2)cc1-c1cccc2ccccc12)N1CCOCC1"
Output line: −1.531

Input line: Data request, read-out Z.LYZ.NS (standard z score), for "NC(=O)Nc1sc(-c2ccc(F)cc2)cc1C(N)=O"
Output line: −0.514

Input line: Data request, read-out Z.LYZ.NS (standard z score), for "Nc1nc(N)c2nc(-c3cccc(O)c3)c(-c3cccc(O)c3)nc2n1"
Output line: 0.025
